Property: Reduction in Signal from Heparin at 30 sec; scope: individual binders
- TARGET: T1, recombinant human GREM1 (hGREM1-His; C-terminal 10His tagged, R&D, #5190-GR) (human, UniProt O60565 25-184)
- T1 construct: range 25-184; also called recombinant human GREM1 with a C-terminal decahistidine tag
- T1 sequence: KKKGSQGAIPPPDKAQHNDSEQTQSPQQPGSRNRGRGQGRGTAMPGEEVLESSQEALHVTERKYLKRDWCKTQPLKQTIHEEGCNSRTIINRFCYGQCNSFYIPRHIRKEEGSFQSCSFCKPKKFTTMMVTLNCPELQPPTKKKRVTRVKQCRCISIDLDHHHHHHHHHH
- TEST: BLI Octet, mAb captured, 100 nM GREM1 without vs with 5 uM heparin;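 also: octet Red96 biolayer interferometry at 25 °C, antibodies captured on anti-human IgG Fc biosensors, association of GREM1 measured with versus without heparin in HEPES-buffered saline, pH 7.4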
Numbers only; they are read as nm.

Previously resolved entries follow.
BINDER	OBSERVED VALUE
H4H6232P (antibody, human IgG4, V domains shown, H4H prefix = human IgG4 Fc) VH: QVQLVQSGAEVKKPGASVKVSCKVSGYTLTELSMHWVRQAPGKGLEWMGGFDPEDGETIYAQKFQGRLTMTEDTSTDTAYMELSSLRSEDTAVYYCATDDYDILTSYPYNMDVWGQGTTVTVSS VL: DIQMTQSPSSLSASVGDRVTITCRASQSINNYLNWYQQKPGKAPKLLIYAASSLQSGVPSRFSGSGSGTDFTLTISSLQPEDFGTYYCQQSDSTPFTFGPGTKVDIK	0.27
H4H6270P (antibody, human IgG4, V domains shown, H4H prefix = human IgG4 Fc) VH: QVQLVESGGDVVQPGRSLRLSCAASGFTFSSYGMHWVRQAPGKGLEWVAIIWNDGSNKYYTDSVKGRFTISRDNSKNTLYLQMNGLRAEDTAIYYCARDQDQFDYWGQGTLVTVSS VL: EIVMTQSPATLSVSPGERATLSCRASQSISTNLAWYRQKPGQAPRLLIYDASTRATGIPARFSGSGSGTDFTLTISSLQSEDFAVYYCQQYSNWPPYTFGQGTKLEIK	0.15
H4H6269P (antibody, human IgG4, V domains shown, H4H prefix = human IgG4 Fc) VH: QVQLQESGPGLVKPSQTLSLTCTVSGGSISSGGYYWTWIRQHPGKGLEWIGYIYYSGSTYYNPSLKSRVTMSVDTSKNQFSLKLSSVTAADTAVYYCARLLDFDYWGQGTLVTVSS VL: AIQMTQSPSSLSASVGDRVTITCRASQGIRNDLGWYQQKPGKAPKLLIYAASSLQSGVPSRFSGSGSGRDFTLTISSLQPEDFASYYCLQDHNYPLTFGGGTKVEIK	0.01
H4H6256P (antibody, human IgG4, V domains shown, H4H prefix = human IgG4 Fc) VH: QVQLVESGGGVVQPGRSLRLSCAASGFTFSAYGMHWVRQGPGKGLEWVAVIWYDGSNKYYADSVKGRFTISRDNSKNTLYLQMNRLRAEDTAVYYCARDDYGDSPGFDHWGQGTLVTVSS VL: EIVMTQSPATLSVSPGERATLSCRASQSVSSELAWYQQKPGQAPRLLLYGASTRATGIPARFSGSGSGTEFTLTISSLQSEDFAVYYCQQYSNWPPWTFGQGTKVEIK	0.13

From here, focus on the item given below.
Problem: Fill blank: measured Reduction in Signal from Heparin at 30 sec of the binder H4H6248P (antibody, human IgG4, V domains shown, H4H prefix = human IgG4 Fc) VH: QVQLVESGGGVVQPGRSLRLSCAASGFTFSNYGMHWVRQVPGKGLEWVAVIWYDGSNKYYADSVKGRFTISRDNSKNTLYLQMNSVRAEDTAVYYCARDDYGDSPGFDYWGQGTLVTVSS VL: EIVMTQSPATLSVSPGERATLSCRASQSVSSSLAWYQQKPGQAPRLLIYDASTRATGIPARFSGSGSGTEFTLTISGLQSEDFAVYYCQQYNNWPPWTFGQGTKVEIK is ____.
Result: 0.17
